A collection of molecules and their measured Solubility, mM phosphatidylserine
# experimentNotes: Apparent solubility of phosphatidylserine salts in ethanol (shake flask)
# Assay type: physicochemical
# conditionDetails: 100% ethanol, room temperature, 24 hours, N=3
measuredQuantity: Solubility, mM phosphatidylserine

1) CCCCCCCCCCCCCCCC(=O)OC[C@H](COP(=O)(O)OC[C@H](N)C(=O)[O-])OC(=O)CCCCCCCCCCCCCCC.[Na+] [DPPS sodium] | 0.201 ± 0.004 mM
2) CCCCCCCCCCCCCCCCCC(=O)OC[C@H](COP(=O)(O)OC[C@H](N)C(=O)O)OC(=O)CCCCCCCCCCCCCCCCC.N | 0.034 ± 0.004 mM
3) CCCCCCCCCCCCCCCC(=O)OC[C@H](COP(=O)(O)OC[C@H](N)C(=O)O)OC(=O)CCCCCCCCCCCCCCC.N | 0.865 ± 0.060 mM
4) CCCCCCCCCCCCCCCCCC(=O)OC[C@H](COP(=O)(O)OC[C@H](N)C(=O)[O-])OC(=O)CCCCCCCCCCCCCCCCC.[Na+] [DSPS sodium] | 0.111 ± 0.009 mM

---

# experimentNotes: Stability of ionizable cationic lipids under accelerated oxidation (H2O2/Fe(III)Cl, UHPLC-CAD), Example 29
# Format: physicochemical
# conditionDetails: individual lipids, 1% H2O2/100 μM Fe(III)Cl, 37° C., 72 h
measuredQuantity: % of main lipid peak to To, 72 h. (%)

1. CCCCC/C=C\C/C=C\CCCCCCCCC1(CCCCCCCC/C=C\C/C=C\CCCCC)OCC(CCCN(C)C)O1 (centres unmarked) [KC3, reference compound] | 0
2. CCCCCCCC/C=C\CCCCCCCCC1(CCCCCCCC/C=C\CCCCCCCC)OC[C@H](CCCN(C)C)O1 [KC3-OA] | 79.0
3. CCCCCC/C=C\CCCCCCCCC1(CCCCCCCC/C=C\CCCCCC)OC[C@H](CCCN(C)C)O1 [KC3-PA] | 60.2
4. CCCCCCCCCCCCCCCCCC1(CCCCCCCCCCCCCCCCC)OC[C@H](CCCN(C)C)O1 [KC3-17] | 90.2
5. CCCCCCCC/C=C\CCCCCCCC1(CCCCCCC/C=C\CCCCCCCC)OC[C@H](CCCN(C)C)O1 [KC3-17 (C8:1)] | 45.9

---

# experimentNotes: Stability of ionizable cationic lipids under accelerated oxidation (H2O2/Fe(III)Cl, UHPLC-CAD), Example 29
# Assay type: physicochemical
# conditionDetails: individual lipids 0.5 mM, 1% H2O2/100 μM Fe(III)Cl, 37° C., 24 h
Flag rule - % of main lipid peak to To, 24 h. less than 70% flags 1; the remaining entries get 0.

1. CCCCCCCC/C=C\CCCCCCCCC1(CCCCCCCC/C=C\CCCCCCCC)OC[C@H](CCCN(C)C)O1 | 0
2. CCCCC/C=C\C/C=C\CCCCCCCCC1(CCCCCCCC/C=C\C/C=C\CCCCC)OCC(CCCN(C)C)O1 (centres unmarked) [KC3, reference compound] | 1
3. CCCCCCCCCCCCCCCCCC1(CCCCCCCCCCCCCCCCC)OC[C@H](CCCN(C)C)O1 | 0
4. CCCCCC/C=C\CCCCCCCCC1(CCCCCCCC/C=C\CCCCCC)OC[C@H](CCCN(C)C)O1 | 1
5. CCCCCCCC/C=C\CCCCCCCC1(CCCCCCC/C=C\CCCCCCCC)OC[C@H](CCCN(C)C)O1 | 1
